What follows is literature data on IC50 for Histone deacetylase 7 (Homo sapiens, UniProt Q8WUI4).

These solved cases illustrate the format of a correct answer.
O=C(NO)c1ccc2c(c1)CN1CCCCN1C2: 10 to 100 µM
Nc1nc2cc(-c3nnn(Cc4ccc(-c5nnc(C(F)F)o5)cn4)n3)ccc2o1: > 30 µM
CC(=O)Nc1ccc(C(=O)Nc2ccc(C)cc2N)cc1: > 33 µM

Return reported IC50 values for all items listed beneath this line.
1. CCN(CC)S(=O)(=O)c1cccc(-c2nnc(Sc3ccc(C(=O)NO)cc3)n2C)c1
2. O=C(NO)c1cc(F)c2c(c1)CCN(C1CC3(CCCCC3)C1)C2
3. O=C(NO)c1ccc(CN2CC3CCC2CO3)c(F)c1 (stereo not shown)
4. COc1ccc(/C=C/C(=O)NO)cc1
5. O=C(NO)c1ccc(Cn2nnc(-c3cccs3)n2)cc1

1: 0.214 µM; 2: 10 to 100 µM; 3: 1 to 10 µM; 4: > 70 µM; 5: 0.611 µM

Return reported IC50 values for all items listed beneath this line.
1. Nc1nc2cc(-c3cn(Cc4ccc(-c5nnc(C(F)F)o5)cn4)nn3)ccc2s1
2. C[C@@H](Nc1ncc(-c2nnc(C(F)F)o2)cn1)c1ccc(F)cc1F
3. O=S(=O)(NCC(Nc1ncc(-c2nnc(C(F)F)o2)cn1)c1ccc(F)cc1)C1CC1 (stereo not shown)

1: > 30 µM; 2: > 30 µM; 3: > 30 µM
